assay: Apparent permeability across apical to basolateral side in human Caco-2/TC7 cells assessed as drug recovery at 20 uM incubated for 2 hrs by LC-MS/MS analysis; assay type: ADME, cell-based, Caco2/TC7; conditions: read-out: Drug recovery
observable: recovery at 2 h, 20 µM (%)

CCCCCNC[C@@H](O)c1cc(C(F)(F)F)nc2c(C(F)(F)F)cccc12 | 99
CCCCCNC[C@H](O)c1cc(C(F)(F)F)nc2c(C(F)(F)F)cccc12 | 86
CCCCCCCNC[C@@H](O)c1cc(C(F)(F)F)nc2c(C(F)(F)F)cccc12 | 65
COC[C@H](Cc1ccccc1)NC[C@@H](O)c1cc(C(F)(F)F)nc2c(C(F)(F)F)cccc12 | 81
CCCCCCCNC[C@H](O)c1cc(C(F)(F)F)nc2c(C(F)(F)F)cccc12 | 90
O[C@H](c1cc(C(F)(F)F)nc2c(C(F)(F)F)cccc12)[C@@H]1CCCCN1 [(R,S)-MEFLOQUINE] | 85
O[C@@H](c1cc(C(F)(F)F)nc2c(C(F)(F)F)cccc12)[C@H]1CCCCN1 [(S,R)-MEFLOQUINE] | 91
